- Test system: Fibroblast
- test-description: Incucyte cell viability with human fibroblast; further: filed as whole numbers so only -1 and 0 and 1 occur
- Type: toxicity, cell-based
- measurement-setup: 0 h, 10 µM, compound concentration 10 uM, replicate number 2, timepoint 0 hours
Can you tell me Growth Rate for the items I'm about to list?
Give only the figure.

Give its Growth Rate value. Item: COc1ncc(F)cc1CNc1ccc(Cc2c[nH]c3ncc(C)cc23)c(F)n1 1

Suppose we examine the molecule COc1ccc(Br)cc1S(=O)(=O)NC(=O)/C=C/c1ccccc1Cc1ccc2ccccc2c1 ; what Growth Rate value has been reported? 0

Return reported Growth Rate; argument: NC(=O)c1ccc2nc(-c3ccc(C4(N)CCC4)cc3)c(-c3ccccc3)n2n1 0

Sample COc1cccc(-c2c(C)n(Cc3c(F)cccc3C(F)(F)F)c(=O)n(C[C@H](NCCCC(=O)[O-])c3ccccc3)c2=O)c1F.[Na+] [ELAGOLIX SODIUM] — what was its Growth Rate? 1

Need Growth Rate, item Cc1cc2c(cc1C1(c3ccc(C(=O)O)cn3)CC1)C(C)(C)CCC2(C)C 0

* * *

Task for the reader: assign each of the following molecules its reported Population Normal (%).
- Test system: Fibroblast
- test-description: Multiplex assay against human fibroblast
- Format: toxicity, cell-based
- measurement-setup: 12 h, 1 µM, compound concentration 1 uM, replicate 2
Kindly provide the numeric value in % only, without the unit symbol.

Which Population Normal (%) reading was recorded for the molecule CCCCN(CC)c1nc(C)nc2c1c(C)cn2-c1c(C)cc(C)cc1C.Cl ? 96

Entry CC[C@@H]1C(=O)N(C)c2cnc(Nc3ccc(C(=O)NC4CCN(C)CC4)cc3OC)nc2N1C1CCCC1 : reported Population Normal (%) = ? 48

Value lookup for Population Normal (%); key = CC(C)[C@H](CO)Nc1nc(Nc2cccc(Cl)c2)c2ncn(C(C)C)c2n1 89

Could you tell me which Population Normal (%) is on file for NC(=O)c1ccc2nc(-c3ccc(C4(N)CCC4)cc3)c(-c3ccccc3)n2n1 ? 48

Fill in: Population Normal (%) of Cl.Cn1c2c(c3ccc(Cl)c(Cl)c31)C(C#N)C1(CCNCC1)NC2=O (centres undefined) is ___ 67

Would you mind telling me what Population Normal (%) value was observed for CC(Cc1ccc(O)c(O)c1)C(C)Cc1ccc(O)c(O)c1 (centres undefined) [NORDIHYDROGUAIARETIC ACID] ? 84

Using the record for Cc1ccc(NC(=O)Nc2cc(C(F)(F)F)ccc2F)cc1Nc1ccc2c(c1)NC(=O)/C2=C\c1ccc[nH]1 , report its Population Normal (%). 49

Tell me the measured Population Normal (%) of Cl.NC[C@@H]1O[C@H](C23CC4CC(CC(C4)C2)C3)Cc2c1ccc(O)c2O , please. 96

Query: Population Normal (%); subject: Oc1cccc(-c2nc(N3CCOCC3)c3oc4ncccc4c3n2)c1 94

* * *

- System: Fibroblast
- test-description: Multiplex assay against human fibroblast
- Format: toxicity, cell-based
- measurement-setup: 48 h, 1 µM, compound concentration 1 uM, replicate 2
quantity-name: Population Apoptotic (%)
Write it as a number; the unit % goes unstated.

Tell me the measured Population Apoptotic (%) of CCCCN(CC)c1nc(C)nc2c1c(C)cn2-c1c(C)cc(C)cc1C.Cl , please. 100

# get_value(readout='Population Apoptotic (%)', item= C=CC(=O)Nc1cc(-n2c(=O)ccc3cnc4ccc(-c5ccc(NS(C)(=O)=O)cc5)cc4c32)ccc1C ) 0

Can you look up the measured Population Apoptotic (%) of CC(Cc1ccc(O)c(O)c1)C(C)Cc1ccc(O)c(O)c1 (centres undefined) [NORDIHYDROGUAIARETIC ACID] for me? 66

Returns the measured Population Apoptotic (%) for the input compound. Input: CCCCCNC(=N)N/N=C/c1c[nH]c2ccc(OC)cc12.O=C(O)/C=C\C(=O)O [TEGASEROD MALEATE] 66

Entry Cc1ccc(S(=O)(=O)NC2c3ccccc3Oc3ccccc32)cc1 : reported Population Apoptotic (%) = ? 75

Request the reported Population Apoptotic (%) associated with CC(C)[C@H](CO)Nc1nc(Nc2cccc(Cl)c2)c2ncn(C(C)C)c2n1 [PURVALANOLA] 50

Which Population Apoptotic (%) is reported for this compound? CC(/C=C1\SC(=S)N(CCCC(=O)Nc2ccc(C(=O)O)c(O)c2)C1=O)=C\c1ccccc1 100

Return reported Population Apoptotic (%); argument: CCCc1cc(C)[nH]c(=O)c1CNC(=O)c1cc(-c2ccc(N3CCN(C(C)C)CC3)nc2)cc2c1cnn2C(C)C 50

Would you mind telling me what Population Apoptotic (%) value was observed for N#CCNC(=O)c1ccc(-c2ccnc(Nc3ccc(N4CCOCC4)cc3)n2)cc1 [MOMELOTINIB] ? 80
